targetOfAssay: GABA-A receptor; alpha-3/beta-3/gamma-2 (Homo sapiens, UniProt P18507+P28472+P34903)
Sequence (P18507 whole entry): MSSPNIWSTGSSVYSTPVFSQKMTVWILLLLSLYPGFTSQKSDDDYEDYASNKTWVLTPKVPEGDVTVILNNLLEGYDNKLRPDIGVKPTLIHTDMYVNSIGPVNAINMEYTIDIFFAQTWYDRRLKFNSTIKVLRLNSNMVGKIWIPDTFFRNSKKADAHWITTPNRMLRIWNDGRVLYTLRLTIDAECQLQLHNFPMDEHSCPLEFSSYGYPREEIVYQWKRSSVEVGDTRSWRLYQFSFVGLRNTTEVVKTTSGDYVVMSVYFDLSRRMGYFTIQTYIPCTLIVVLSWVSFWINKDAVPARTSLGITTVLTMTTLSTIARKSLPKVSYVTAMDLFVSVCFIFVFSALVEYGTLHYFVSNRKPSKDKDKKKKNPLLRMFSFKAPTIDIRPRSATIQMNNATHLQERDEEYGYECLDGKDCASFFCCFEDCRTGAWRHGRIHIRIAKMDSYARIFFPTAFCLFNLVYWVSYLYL
Sequence (P28472 whole entry): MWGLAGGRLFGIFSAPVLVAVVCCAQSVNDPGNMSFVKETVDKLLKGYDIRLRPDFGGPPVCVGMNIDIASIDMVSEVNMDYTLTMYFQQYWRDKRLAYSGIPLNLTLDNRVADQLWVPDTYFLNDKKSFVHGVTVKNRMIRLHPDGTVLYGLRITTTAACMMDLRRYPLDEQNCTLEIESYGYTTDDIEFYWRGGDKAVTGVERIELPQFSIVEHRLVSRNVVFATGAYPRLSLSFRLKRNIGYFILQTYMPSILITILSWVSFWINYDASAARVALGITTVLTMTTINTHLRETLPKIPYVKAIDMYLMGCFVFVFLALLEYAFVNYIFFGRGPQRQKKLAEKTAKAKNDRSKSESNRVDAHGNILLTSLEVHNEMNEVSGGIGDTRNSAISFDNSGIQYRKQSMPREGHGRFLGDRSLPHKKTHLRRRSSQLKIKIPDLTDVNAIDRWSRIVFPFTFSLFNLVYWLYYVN
Sequence (P34903 whole entry): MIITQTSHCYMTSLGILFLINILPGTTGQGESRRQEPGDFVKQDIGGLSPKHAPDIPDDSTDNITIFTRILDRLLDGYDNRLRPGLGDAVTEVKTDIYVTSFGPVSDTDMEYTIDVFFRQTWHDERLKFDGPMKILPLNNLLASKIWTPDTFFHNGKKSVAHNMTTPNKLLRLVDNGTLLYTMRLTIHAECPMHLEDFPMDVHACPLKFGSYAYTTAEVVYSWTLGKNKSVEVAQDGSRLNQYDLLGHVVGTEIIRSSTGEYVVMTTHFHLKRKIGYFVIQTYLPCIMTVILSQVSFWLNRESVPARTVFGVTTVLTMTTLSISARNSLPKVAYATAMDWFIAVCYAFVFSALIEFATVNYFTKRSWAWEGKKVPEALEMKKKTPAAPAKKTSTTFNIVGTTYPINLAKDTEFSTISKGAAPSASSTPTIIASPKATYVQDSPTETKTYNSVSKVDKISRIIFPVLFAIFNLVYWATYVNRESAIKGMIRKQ
testMethodNotes: In vitro displacement of [3H]Ro-151788 from human GABA-A receptor alpha-3-beta-3-gamma-2 subunits expressed in L(tk-) cells
Type: cell-based
pKi: −log10 of the molar value.
measureName: pKi

>  <testSmiles>
Oc1c2cnc3c(c2nn1-c1ccc(OC2CC2)cc1)CCCC3

>  <measureName>
pKi

>  <testValue>
8.66

$$$$

---

targetOfAssay: GABA-A receptor; alpha-3/beta-3/gamma-2 (Homo sapiens, UniProt P18507+P28472+P34903)
testMethodNotes: In vitro binding affinity against Gamma-aminobutyric acid A receptor, alpha 3 expressed in L(tk) cells by displacement of [3H]Ro-151788
Format: cell-based
Friendly reminder: Ki below 1 nM is Condition met, at or above is Condition not met.

>  <compound>
Oc1c2c(nn1-c1ccc(OC(F)F)cc1)C1CSCCC1N=C2 (stereo unspecified)

>  <categoryLabel>
Condition met

$$$$
>  <compound>
Oc1c2c(nn1-c1ccc(Cl)cc1)C1CN(CC3CC3)CCC1N=C2 (stereo unspecified)

>  <categoryLabel>
Condition not met

$$$$
>  <compound>
Oc1c2c(nn1-c1ccc(Cl)cc1)C1CCCC1N=C2 (stereo unspecified)

>  <categoryLabel>
Condition not met

$$$$
>  <compound>
Oc1c2c(nn1-c1ccc(Cl)cc1)C1CCCCCC1N=C2 (stereo unspecified)

>  <categoryLabel>
Condition not met

$$$$
>  <compound>
O=c1c2c[nH]c3c(c-2nn1-c1ccc(Cl)cc1)CCCC3

>  <categoryLabel>
Condition not met

$$$$
>  <compound>
O=C(Cc1cccnc1)N1CCC2N=Cc3c(nn(-c4ccc(Cl)cc4)c3O)C2C1 (stereo unspecified)

>  <categoryLabel>
Condition not met

$$$$
>  <compound>
COc1ccc(-n2nc3c4c(ncc3c2O)CCCC4)cc1

>  <categoryLabel>
Condition met

$$$$
>  <compound>
Oc1c2cnc3c(c2nn1-c1ccccn1)CCCC3

>  <categoryLabel>
Condition not met

$$$$
>  <compound>
Oc1c2cnc3c(c2nn1-c1ccc(F)cc1)CCCC3

>  <categoryLabel>
Condition met

$$$$
>  <compound>
Oc1c2c(nn1-c1ccc(Cl)cc1)C1CN(Cc3ccncc3)CCC1N=C2 (stereo unspecified)

>  <categoryLabel>
Condition met

$$$$
>  <compound>
Oc1c2c(nn1-c1ccc(OC(F)F)cc1)C1COCCC1N=C2 (stereo unspecified)

>  <categoryLabel>
Condition not met

$$$$

---

targetOfAssay: GABA-A receptor; alpha-1/beta-3/gamma-2 (Homo sapiens, UniProt P14867+P18507+P28472)
Sequence (P14867 whole entry): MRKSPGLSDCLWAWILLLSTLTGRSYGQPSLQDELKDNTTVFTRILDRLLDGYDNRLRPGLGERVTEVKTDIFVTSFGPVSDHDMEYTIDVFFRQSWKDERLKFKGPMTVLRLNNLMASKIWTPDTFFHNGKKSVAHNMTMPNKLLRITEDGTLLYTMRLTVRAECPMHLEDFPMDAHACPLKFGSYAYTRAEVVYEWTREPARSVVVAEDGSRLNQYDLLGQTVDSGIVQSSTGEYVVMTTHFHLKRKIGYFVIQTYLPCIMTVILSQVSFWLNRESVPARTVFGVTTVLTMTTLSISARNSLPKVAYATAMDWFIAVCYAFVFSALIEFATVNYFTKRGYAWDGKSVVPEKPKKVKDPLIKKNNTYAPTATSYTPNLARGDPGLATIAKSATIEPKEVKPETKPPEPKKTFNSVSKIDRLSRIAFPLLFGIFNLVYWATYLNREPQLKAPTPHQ
Sequence (P18507 whole entry): as the sequence (P18507 whole entry) above
Sequence (P28472 whole entry): as the sequence (P28472 whole entry) above
testMethodNotes: In vitro binding affinity against gamma-aminobutyric acid A receptor, alpha 1 expressed in L(tk) cells by displacement of [3H]Ro-151788
pKi: −log10 of the molar value.

>  <compound>
Oc1c2cnc3c(c2nn1-c1ccc(OC(F)F)cc1)CCCC3

>  <targetOfAssay>
GABA-A receptor; alpha-1/beta-3/gamma-2 (Homo sapiens, UniProt P14867+P18507+P28472)

>  <pKi>
9.00

$$$$
>  <compound>
Oc1c2cnc3c(c2nn1-c1ccc(OC2CC2)cc1)CCCC3

>  <targetOfAssay>
GABA-A receptor; alpha-1/beta-3/gamma-2 (Homo sapiens, UniProt P14867+P18507+P28472)

>  <pKi>
8.95

$$$$
>  <compound>
Oc1c2c(nn1-c1ccc(OC(F)F)cc1)C1CSCCC1N=C2 (stereo unspecified)

>  <targetOfAssay>
GABA-A receptor; alpha-1/beta-3/gamma-2 (Homo sapiens, UniProt P14867+P18507+P28472)

>  <pKi>
9.42

$$$$
>  <compound>
Oc1c2c(nn1-c1ccc(Cl)cc1)C1CN(Cc3ccncc3)CCC1N=C2 (stereo unspecified)

>  <targetOfAssay>
GABA-A receptor; alpha-1/beta-3/gamma-2 (Homo sapiens, UniProt P14867+P18507+P28472)

>  <pKi>
9.74

$$$$
>  <compound>
Oc1c2cnc3c(c2nn1-c1ccc(OC(F)(F)F)cc1)CCCC3

>  <targetOfAssay>
GABA-A receptor; alpha-1/beta-3/gamma-2 (Homo sapiens, UniProt P14867+P18507+P28472)

>  <pKi>
8.13

$$$$
>  <compound>
Oc1c2c(nn1-c1ccc(Cl)cc1)C1CCCCCC1N=C2 (stereo unspecified)

>  <targetOfAssay>
GABA-A receptor; alpha-1/beta-3/gamma-2 (Homo sapiens, UniProt P14867+P18507+P28472)

>  <pKi>
8.97

$$$$
>  <compound>
Oc1c2cnc3c(c2nn1-c1ccccn1)CCCC3

>  <targetOfAssay>
GABA-A receptor; alpha-1/beta-3/gamma-2 (Homo sapiens, UniProt P14867+P18507+P28472)

>  <pKi>
9.24

$$$$
>  <compound>
Oc1c2c(nn1-c1ccc(OC(F)F)cc1)C1COCCC1N=C2 (stereo unspecified)

>  <targetOfAssay>
GABA-A receptor; alpha-1/beta-3/gamma-2 (Homo sapiens, UniProt P14867+P18507+P28472)

>  <pKi>
8.81

$$$$
>  <compound>
COc1ccc(-n2nc3c4c(ncc3c2O)CCCC4)cc1

>  <targetOfAssay>
GABA-A receptor; alpha-1/beta-3/gamma-2 (Homo sapiens, UniProt P14867+P18507+P28472)

>  <pKi>
9.51

$$$$
>  <compound>
Oc1c2cnc3c(c2nn1-c1ccc(OC2CCC2)cc1)CCCC3

>  <targetOfAssay>
GABA-A receptor; alpha-1/beta-3/gamma-2 (Homo sapiens, UniProt P14867+P18507+P28472)

>  <pKi>
8.89

$$$$
>  <compound>
Oc1c2c(nn1-c1ccc(Cl)cc1)C1CCCC1N=C2 (stereo unspecified)

>  <targetOfAssay>
GABA-A receptor; alpha-1/beta-3/gamma-2 (Homo sapiens, UniProt P14867+P18507+P28472)

>  <pKi>
9.36

$$$$
